Origin of measurements: patent US12065505B2

# Experimental protocol: Competitive TR-FRET assay modified for mAbs and Fabs (T0, T24, T48)
# Type: binding
# Condition context: 37° C.; IC50 shift at 24 hr relative to T0
Readout kind: T24 hr IC50 shift

Name the recorded T24 hr IC50 shift of the molecule listed here: 26D5-75202-343-A09-mAb: human IgG1f/kappa mAb; VH SEQ ID NO: 54, VL SEQ ID NO: 86 (antibody, V domains shown) VH: EVQLVESGGGLIQPGGSLRLSCAASGFTVSSNAMSWVRQAPGKGLEWVSYIYPGGRTYYADSVKGRFTISRDNSKNTLYLQMNSLRAEDTAVYYCARAGFGGGDYWGQGTLVTVSS VL: DIQMTQSPSSVSASVGDRVTITCRASQGIYSNLAWYQQKPGKAPKLLIYAASSLQSGVPSRFSGSGSGTDFTLTISSLQPEDFATYYCQQANEFPLTFGGGTKVEIK
1.1 nM
